# Assayed target: Thyroid hormone receptor beta (Homo sapiens) (UniProt P10828)
# Sequence (P10828 whole entry, looked up): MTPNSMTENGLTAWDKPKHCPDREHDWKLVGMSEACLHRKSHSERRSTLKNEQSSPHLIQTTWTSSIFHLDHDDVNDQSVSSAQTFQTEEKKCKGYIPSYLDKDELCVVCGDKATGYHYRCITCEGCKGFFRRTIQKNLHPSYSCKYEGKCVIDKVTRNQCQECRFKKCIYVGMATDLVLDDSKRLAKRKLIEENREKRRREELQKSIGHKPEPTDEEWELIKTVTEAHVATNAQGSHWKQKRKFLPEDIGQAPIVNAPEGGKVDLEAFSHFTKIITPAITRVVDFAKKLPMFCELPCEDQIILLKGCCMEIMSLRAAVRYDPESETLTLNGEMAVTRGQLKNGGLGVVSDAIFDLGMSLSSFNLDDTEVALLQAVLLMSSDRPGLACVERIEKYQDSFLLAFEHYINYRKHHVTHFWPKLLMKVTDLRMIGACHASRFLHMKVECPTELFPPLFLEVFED
# Experiment description: qHTS assay for small molecule antagonists of thyroid hormone receptor beta signaling (AID 588547);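 also: cells stimulated with 0.4 nM T3 agonist during compound exposure; % is scaled to controls: 0 for no effect and ±100 for the full control effect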
# Settings: TR-UAS-bla HEK293, beta-lactamase ratio, antagonist mode, 18 h
Inconclusive results are not listed. Activity calls are given as the source filed them. Calls follow the shape of the dose curve; as a rule, active = well fitted inhibition curve with a large enough effect in the signal ratio, with a control signal flat (not every such curve was filed as active); inconclusive = small, poorly fitted or top-dose-only effect, or effect the other way, or a change in a side signal; inactive = flat fitted curve, though single readings scatter; the % refers to the signal ratio.
Experimental endpoint: activity change % (negative = inhibition)

For orientation, consider the following solved cases.
Structure	Result value
O=C1c2cccc(O)c2C(=O)c2c(O)cc(CO)cc21	26.1% (inactive)
Cc1cc(O)c2c(c1)C(=O)c1cccc(O)c1C2=O	3.18% (inactive)
C[C@]12CC[C@@H]3c4ccc(O)cc4CC[C@H]3[C@H]1CC[C@H]2O	-1.66% (inactive)

(Q) activity change % (negative = inhibition) for `OC[C@@H](O)[C@@H](O)[C@H](O)[C@@H](O)CO` ?
(A) 1.79% (inactive)

====

# Experiment description: Quantitative High-Throughput drug screen in 47 multiple myeloma cell lines against the NCATS MIPE library collection: MM1S_ATCC cell viability assay (AID 1918980); also: nearly all actives have a fitted effect of over 45% in size
# Settings: MM1S myeloma viability, CellTiter-Glo ATP luminescence, 48 h; series mostly up to 45.8 µM
Results filed as inconclusive are left out. Calls of active or inactive are those of the source. Calls come from the whole dose curve; as a rule, active = well fitted cell-killing curve with a large enough effect; inconclusive = small, poorly fitted or top-dose-only effect, or effect the other way; inactive = no such curve, though single readings can be large or run the other way.
Reply using exactly one outcome from YES for active, NO for inactive

Reference set (10 entries):
Compound	Cat
CCOC(=O)C=C[C@H](C[C@@H]1CCNC1=O)NC(=O)[C@@H](CC(=O)[C@@H](NC(=O)c1cc(C)on1)C(C)C)Cc1ccc(F)cc1	NO
CN1CCCN(C(=O)c2cccc(-c3ccc(C=C4C(=O)Nc5ccc(Cl)cc54)o3)c2)CC1	YES
FC(F)(F)c1ccc(Nc2nc3ccc(Oc4ccnc(-c5ncc(C(F)(F)F)[nH]5)c4)cc3[nH]2)cc1	YES
Cn1cc(-c2ccc3ncc(Cc4ccc5ncccc5c4)n3n2)cn1	NO
Nc1nc(N)c2nc(-c3cccc(O)c3)c(-c3cccc(O)c3)nc2n1	YES
OCC(O)C(O)C(O)CO (centres undefined)	NO
COc1cc2c(cc1O)CCC1C2CC[C@@]2(C)C1CC[C@@H]2O (some centres undefined)	YES
Oc1cc(-c2nc(-c3ccccc3)[nH]c2-c2ccncc2)ccc1Cl	YES
C=CC(=O)Nc1cc(NC(=O)c2ccc(C)c(NC(=O)c3ccno3)c2)cc(C(F)(F)F)c1	YES
COc1cc2ncnc(Nc3cccc(Br)c3)c2cc1OC	YES

(Q) Test call, this compound: `CC(C)n1cnc2c(NCCc3ccc(O)cc3)nc(-c3csc4ccccc34)nc21`
(A) YES

(Q) Test call, this compound: `COc1cc(C(=O)NC2CCN(C)CC2)ccc1Nc1ncc2c(n1)N(C1CCCC1)CCC(=O)N2C(C)C`
(A) YES

(Q) Test call, this compound: `CCN(CC)CCCCNc1ncc2c(n1)N(C)C(=O)N(c1c(Cl)c(OC)cc(OC)c1Cl)C2`
(A) YES

====

# Experiment description: Quantitative High-Throughput drug screen in 47 multiple myeloma cell lines against the NCATS MIPE library collection: KMS34_JCRB cell viability assay (AID 1918985); also: nearly all actives have a fitted effect of over 40% in size
# Settings: KMS34 myeloma viability, CellTiter-Glo ATP luminescence, 48 h; series mostly up to 45.8 µM
Inconclusive results are not listed. Active and inactive are the calls of the source. The call rests on the fitted dose curve; in most records, active means well fitted cell-killing curve with a large enough effect; inconclusive means small, poorly fitted or top-dose-only effect, or effect the other way; inactive means no such curve, though single readings can be large or run the other way.
Reply using exactly one outcome from class 1 = active, class 0 = inactive

Reference set (3 entries):
Compound	Cat
CC(C)C[C@H](NC(=O)CNC(=O)c1cc(Cl)ccc1Cl)B1OC(=O)CC(CC(=O)O)(C(=O)O)O1 (stereo partly drawn)	class 1
Cc1nc(NC(=O)N2CCC[C@@H]2C(N)=O)sc1-c1ccnc(C(C)(C)C(F)(F)F)c1	class 1
CC(C)NC[C@@H](C(=O)N1CCN(c2ncnc3c2[C@H](C)C[C@H]3O)CC1)c1ccc(Cl)cc1	class 1

(Q) Test call, this compound: Cc1ccccc1C(=O)Nc1ccc(C(=O)N2CCCC(O)c3cc(Cl)ccc32)c(C)c1 (stereo not drawn)
(A) class 0

(Q) Test call, this compound: CCCNC(=O)[C@H]1O[C@H]1C(=O)N[C@H](C(=O)N1CCC[C@@H]1C(=O)OC)C(C)CC (stereo partly drawn)
(A) class 1

(Q) Test call, this compound: `O=C(NNC(=O)c1ccc(CNS(=O)(=O)c2ccc(F)c(Cl)c2)cc1)c1ccccc1`
(A) class 0

(Q) Test call, this compound: `CC(=O)OCC(=O)[C@@]12N=C(C)O[C@H]1C[C@H]1[C@@H]3CCC4=CC(=O)C=C[C@]4(C)[C@@H]3[C@@H](O)C[C@@]12C`
(A) class 0

(Q) Test call, this compound: `C=C(C)[C@@H]1CC[C@]2(C(=O)O)CC[C@]3(C)[C@H](CC[C@@H]4[C@@]5(C)CC[C@H](O)C(C)(C)[C@@H]5CC[C@]43C)[C@@H]12`
(A) class 0

====

# Test system: CAOV3
# Experiment description: Primary qHTS to identify gynecologic anti-cancer compounds using libraries of approved drugs and bioactive compounds (AID 1345084); also: nearly all actives have a fitted effect of over 55% in size
# Settings: Gynecologic cancer cell panel viability, ATPlite luminescence, 48 h; series mostly up to 57.5 µM
Results filed as inconclusive are left out. Calls of active or inactive are those of the source. Calls come from the whole dose curve; as a rule, active = well fitted cell-killing curve with a large enough effect; inconclusive = small, poorly fitted or top-dose-only effect, or effect the other way; inactive = flat fitted curve, though single readings scatter.
Reply using exactly one outcome from 1 (yes) for active, 0 (no) for inactive

Reference set (5 entries):
Compound	Cat
Cc1ccc(-n2[nH]c(C)c(N=Nc3cccc(-c4cccc(C(=O)O)c4)c3O)c2=O)cc1C	0 (no)
CC1(C)O[C@@H]2C[C@H]3[C@@H]4CCC5=CC(=O)C=C[C@]5(C)[C@@H]4[C@@H](O)C[C@]3(C)[C@]2(C(=O)CO)O1	0 (no)
c1cncc(CN2CCC(n3ncc4c(N5CCOCC5)nc(-c5ccc6[nH]ccc6c5)nc43)CC2)c1	1 (yes)
CC(C)C[C@H](NC(=O)[C@@H](NC(=O)c1cccc(-c2ccccc2)n1)[C@@H](C)O)B(O)O	1 (yes)
C[C@H](O)[C@@H]1C(=O)N2C(C(=O)O)=C(S[C@@H]3CN[C@H](CNS(N)(=O)=O)C3)[C@@H](C)[C@@H]12	0 (no)

(Q) Test call, this compound: `CCC[C@H]1C[C@H](C(=O)N[C@@H]([C@@H]2O[C@@H](SC)[C@@H](O)[C@@H](O)[C@@H]2O)[C@H](C)Cl)N(C)C1`
(A) 0 (no)

(Q) Test call, this compound: `O=C(O)c1ccc(Nc2ncc3c(n2)-c2ccc(Cl)cc2C(c2c(F)cccc2F)=NC3)cc1`
(A) 0 (no)

(Q) Test call, this compound: `C=CC(=O)Nc1ccc2ncnc(Nc3ccc(OCc4cccc(F)c4)c(Cl)c3)c2c1`
(A) 1 (yes)

(Q) Test call, this compound: CC(O)(C#Cc1ccc2c(c1)N(c1nc(N)ncc1Cl)CC2)c1nccs1 (configuration not stated)
(A) 0 (no)

(Q) Test call, this compound: `Cc1coc2c1C(=O)C(=O)c1c-2ccc2c(C)cccc12`
(A) 0 (no)

(Q) Test call, this compound: N[C@H]1CN(c2c(F)cc3c(=O)c(C(=O)O)cn(C4C[C@@H]4F)c3c2Cl)CC12CC2 (some centres not stated)
(A) 0 (no)

(Q) Test call, this compound: `CC(C)n1cnc2c(NCCc3ccc(O)cc3)nc(-c3csc4ccccc34)nc21`
(A) 0 (no)

(Q) Test call, this compound: `c1ccc2c(Oc3nc(Nc4ccc(N5CCOCC5)cc4)c4ncn(C5CCCCC5)c4n3)cccc2c1`
(A) 0 (no)

====

# Test system: Zika virus NS2B-NS3 protease (unlinked complex)
# Experiment description: Primary screen GU Rhodamine qHTS for Zika virus inhibitors: Unlinked NS2B-NS3 protease assay (AID 1347159); also: nearly all actives have a fitted effect of over 60% in size; also: potency is read from the fitted curve at half-maximal effect
# Settings: Recombinant ZIKV NS2B-NS3 protease, Rhodamine110 substrate fluorescence; series mostly up to 107 µM
Results filed as inconclusive are left out. Activity calls are given as the source filed them. The call rests on the fitted dose curve; in most records, active means well fitted inhibition curve with a large enough effect; inconclusive means small, poorly fitted or top-dose-only effect; inactive means no such curve, though single readings can be large or run the other way.
Experimental endpoint: Potency

Compound	Assayed target	Result value
Nc1ccn(C2CO[C@H](CO)O2)c(=O)n1 (some centres undefined)	Zika virus NS2B-NS3 protease (unlinked complex)	inactive
CC1=C(C(=O)Nc2cc3cn[nH]c3cc2F)C(c2ccc(Cl)cc2F)N=C(c2ccnc(Cl)c2)N1 (centres undefined)	Zika virus NS2B-NS3 protease (unlinked complex)	inactive
CC(C)(N)c1ccc(-c2nc3ccccc3nc2-c2ccccc2)cc1	Zika virus NS2B-NS3 protease (unlinked complex)	inactive
N[C@H]1CN(c2c(F)cc3c(=O)c(C(=O)O)cn(C4C[C@@H]4F)c3c2Cl)CC12CC2 (some centres undefined)	Zika virus NS2B-NS3 protease (unlinked complex)	inactive
C[C@@H](Cc1cc2c(c(C(N)=O)c1)N(CCCO)CC2)NCCOc1ccccc1OCC(F)(F)F	Zika virus NS2B-NS3 protease (unlinked complex)	inactive
CC(C)c1cc(C(C)C)c(CC(=O)NS(=O)(=O)Oc2c(C(C)C)cccc2C(C)C)c(C(C)C)c1	Zika virus NS2B-NS3 protease (unlinked complex)	3.16 µM (active)
c1cncc(CN2CCC(n3ncc4c(N5CCOCC5)nc(-c5ccc6[nH]ccc6c5)nc43)CC2)c1	Zika virus NS2B-NS3 protease (unlinked complex)	inactive
C[N+]1(C)[C@@H]2C[C@@H](OC(=O)C(O)(c3cccs3)c3cccs3)C[C@H]1[C@@H]1O[C@@H]12	Zika virus NS2B-NS3 protease (unlinked complex)	inactive

Please look at the following compound next.
(Q) Param readout = Potency; param system = Zika virus NS2B-NS3 protease (unlinked complex); param query = `Cn1cc(-c2ccc3ncc(Cc4ccc5ncccc5c4)n3n2)cn1` ; response: value
(A) inactive
